- Tested on: NCI-H1666
- experiment notes: relative viability (nuclei count vs DMSO), 5 days (fraction); higher = more cells survive
- run parameters: first compound 4 µM
readout name: relative viability
Could you keep your reply to the number by itself?

# input Need relative viability, item COc1cc(N2CCC(C(N)=O)CC2)ccc1Nc1nc(N)c(Cl)c(Nc2ccccc2S(=O)(=O)C(C)C)n1 [HG-5-88-01] + Nc1nc2[nH]cc(CCc3ccc(C(=O)N[C@@H](CCC(=O)O)C(=O)O)cc3)c2c(=O)[nH]1 [Pemetrexed] (partner 0.2 µM)
# output 0.592

# input What about Clc1ccc(Nc2nnc(Cc3ccncc3)c3ccccc23)cc1 [Vatalanib] + CC(=O)Nc1cccc(-n2c(=O)n(C3CC3)c(=O)c3c(Nc4ccc(I)cc4F)n(C)c(=O)c(C)c32)c1 [Trametinib] (partner 0.02 µM) ?
# output 0.782

# input What about Clc1ccc(Nc2nnc(Cc3ccncc3)c3ccccc23)cc1 [Vatalanib] + COc1cc2c(Oc3ccc(NC(=O)C4(C(=O)Nc5ccc(F)cc5)CC4)cc3F)ccnc2cc1OCCCN1CCOCC1 [Foretinib] (partner 0.25 µM) ?
# output 0.925

# input What about C[C@@H]1CN(CC(=O)Nc2ccc3c(c2)Cc2cccc(-c4cc(=O)cc(N5CCOCC5)o4)c2S3)C[C@H](C)O1 + C[C@@H](Oc1cc(-c2cnn(C3CCNCC3)c2)cnc1N)c1c(Cl)ccc(F)c1Cl [Crizotinib] (partner 1 µM) ?
# output 0.661

# input What about C[C@@H]1CN(CC(=O)Nc2ccc3c(c2)Cc2cccc(-c4cc(=O)cc(N5CCOCC5)o4)c2S3)C[C@H](C)O1 + CS(=O)(=O)N1CCN(Cc2cc3nc(-c4cccc5[nH]ncc45)nc(N4CCOCC4)c3s2)CC1 [Pictilisib] (partner 1 µM) ?
# output 0.29

# input What about Clc1ccc(Nc2nnc(Cc3ccncc3)c3ccccc23)cc1 [Vatalanib] + NC(=O)Nc1cc(-c2cccc(F)c2)sc1C(=O)N[C@H]1CCCNC1 [AZD7762] (partner 0.2 µM) ?
# output 0.762

# input What about Clc1ccc(Nc2nnc(Cc3ccncc3)c3ccccc23)cc1 [Vatalanib] + C[C@]1(O)C[C@@H](c2nc(-c3ccc4ccc(-c5ccccc5)nc4c3)c3c(N)nccn32)C1 [Linsitinib] (partner 1 µM) ?
# output 0.708

----------
- Test system: NCI-H2023
- experiment notes: relative viability (nuclei count vs DMSO), 5 days (fraction); higher = more cells survive
- run parameters: first compound 0.04 µM
So I've got a bunch of molecules here, and I need their relative viability values.
Could you keep your reply to the number by itself?

# input Need relative viability, item Clc1ccc(Nc2nnc(Cc3ccncc3)c3ccccc23)cc1 [Vatalanib] + CCNC(=O)c1noc(-c2cc(C(C)C)c(O)cc2O)c1-c1ccc(CN2CCOCC2)cc1 [Luminespib] (partner 0.01 µM)
# output 0.58

# input What about Clc1ccc(Nc2nnc(Cc3ccncc3)c3ccccc23)cc1 [Vatalanib] + CS(=O)(=O)N1CCN(Cc2cc3nc(-c4cccc5[nH]ncc45)nc(N4CCOCC4)c3s2)CC1 [Pictilisib] (partner 1 µM) ?
# output 0.252

# input What about Clc1ccc(Nc2nnc(Cc3ccncc3)c3ccccc23)cc1 [Vatalanib] + CC(C)C[C@H](NC(=O)[C@H](Cc1ccccc1)NC(=O)c1cnccn1)B(O)O [Bortezomib] (partner 0.002 µM) ?
# output 1.02
